Provide the reported IC50 of each item.
# STUDY_TARGET: Tyrosyl-DNA phosphodiesterase 1 (Homo sapiens)
# ASSAY_NOTES: Inhibition of recombinant TDP1 (unknown origin) using 5'-(5,6 FAM-aac gtc agg gtc ttc c-BHQ1)-3' as substrate measured every 55 secs for 8 mins by fluorescence based assay
Express your answer in µM, writing the number without its unit.

Which IC50 is reported for this compound? CC(C)c1ccc2c(c1)CC[C@H]1[C@](C)(CNC(=O)NCCCCCCNC(=O)NC[C@]3(C)CCC[C@]4(C)c5ccc(C(C)C)cc5CC[C@@H]34)CCC[C@]21C
0.19

Which IC50 is reported for this compound? CCNC(=S)NC[C@]1(C)CCC[C@]2(C)c3ccc(C(C)C)cc3CC[C@@H]12
2.3

Which IC50 is reported for this compound? CC(C)c1ccc2c(c1)CC[C@H]1[C@](C)(CNC(=O)NC3CCCCC3)CCC[C@]21C
0.5

Which IC50 is reported for this compound? C=CCNC(=S)NC[C@]1(C)CCC[C@]2(C)c3ccc(C(C)C)cc3CC[C@@H]12
0.57

====

# STUDY_TARGET: UniProtKB Q9NUW8
# ASSAY_NOTES: Inhibition of recombinant TDP1 (unknown origin) using 5'-(5,6 FAM-aac gtc agg gtc ttc c-BHQ1)-3' as substrate measured every 55 secs for 8 mins by fluorescence based assay
OUTCOME_MEASURE: pIC50
By convention, pIC50 is the negative base-10 log of a molar concentration.

Which pIC50 is reported for this compound? CC(C)c1ccc2c(c1)CC[C@H]1[C@](C)(CNC(=O)Nc3ccc(Cl)cc3)CCC[C@]21C
6.55

Which pIC50 is reported for this compound? Cc1ccc(NC(=O)NC[C@]2(C)CCC[C@]3(C)c4ccc(C(C)C)cc4CC[C@@H]23)cc1NC(=O)NC[C@]1(C)CCC[C@]2(C)c3ccc(C(C)C)cc3CC[C@@H]12
6.96

Which pIC50 is reported for this compound? CC(C)c1ccc2c(c1)CC[C@H]1[C@](C)(CNC(=O)NC34CC5CC(CC(C5)C3)C4)CCC[C@]21C
7.00

Which pIC50 is reported for this compound? CNC(=S)NC[C@]1(C)CCC[C@]2(C)c3ccc(C(C)C)cc3CC[C@@H]12
5.83

Which pIC50 is reported for this compound? CC(C)c1ccc2c(c1)CC[C@H]1[C@](C)(CNC(=O)NCC3(C)CC(NC(=O)NC[C@]4(C)CCC[C@]5(C)c6ccc(C(C)C)cc6CC[C@@H]45)CC(C)(C)C3)CCC[C@]21C (stereo partly drawn)
7.05

Which pIC50 is reported for this compound? CC(C)c1ccc2c(c1)CC[C@H]1[C@](C)(CNC(=S)Nc3ccccc3)CCC[C@]21C
6.15

Which pIC50 is reported for this compound? CC(C)c1ccc2c(c1)CC[C@H]1[C@](C)(CNC(=O)Nc3ccccc3)CCC[C@]21C
6.02

Which pIC50 is reported for this compound? CCNC(=O)NC[C@]1(C)CCC[C@]2(C)c3ccc(C(C)C)cc3CC[C@@H]12
5.43

====

# STUDY_TARGET: UniProt P09874
# Sequence (P09874 whole entry): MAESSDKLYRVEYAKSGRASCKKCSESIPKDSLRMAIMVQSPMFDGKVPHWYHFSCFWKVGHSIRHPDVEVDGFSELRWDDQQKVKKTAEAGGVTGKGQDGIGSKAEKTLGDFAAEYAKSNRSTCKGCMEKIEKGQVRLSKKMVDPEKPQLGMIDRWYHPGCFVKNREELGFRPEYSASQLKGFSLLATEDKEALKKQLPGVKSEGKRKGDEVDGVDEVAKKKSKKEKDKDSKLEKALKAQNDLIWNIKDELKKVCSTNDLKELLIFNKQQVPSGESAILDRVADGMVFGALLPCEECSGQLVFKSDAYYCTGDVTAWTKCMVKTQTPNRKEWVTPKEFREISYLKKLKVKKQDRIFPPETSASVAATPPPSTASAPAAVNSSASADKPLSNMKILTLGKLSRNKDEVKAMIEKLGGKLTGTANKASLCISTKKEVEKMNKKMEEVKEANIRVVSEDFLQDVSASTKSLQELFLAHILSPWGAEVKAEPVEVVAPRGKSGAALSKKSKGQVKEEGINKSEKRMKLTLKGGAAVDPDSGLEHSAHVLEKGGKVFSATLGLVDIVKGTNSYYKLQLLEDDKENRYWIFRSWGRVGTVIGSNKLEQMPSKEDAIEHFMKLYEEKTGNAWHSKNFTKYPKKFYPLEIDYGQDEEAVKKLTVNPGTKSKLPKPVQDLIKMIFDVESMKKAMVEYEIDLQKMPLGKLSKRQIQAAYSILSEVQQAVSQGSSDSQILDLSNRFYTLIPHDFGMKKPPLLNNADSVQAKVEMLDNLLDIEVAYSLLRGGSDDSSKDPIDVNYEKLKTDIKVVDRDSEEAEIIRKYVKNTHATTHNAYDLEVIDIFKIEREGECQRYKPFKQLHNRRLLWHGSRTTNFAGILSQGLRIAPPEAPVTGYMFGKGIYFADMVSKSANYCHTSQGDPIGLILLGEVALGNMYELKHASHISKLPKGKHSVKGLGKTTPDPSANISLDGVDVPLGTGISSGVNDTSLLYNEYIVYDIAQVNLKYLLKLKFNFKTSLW
# ASSAY_NOTES: Inhibition of PARP1 (unknown origin) assessed as residual activity at 100 uM relative to control
Provide the reported Activity of each item.
Express your answer in %, writing the number without its unit.

Which Activity is reported for this compound? CNC(=S)NC[C@]1(C)CCC[C@]2(C)c3ccc(C(C)C)cc3CC[C@@H]12
110

Which Activity is reported for this compound? CC(C)c1ccc2c(c1)CC[C@H]1[C@](C)(CNC(=O)Nc3ccc(Cl)cc3)CCC[C@]21C
93

Which Activity is reported for this compound? CC(C)c1ccc2c(c1)CC[C@H]1[C@](C)(CNC(=O)NCCCCCCNC(=O)NC[C@]3(C)CCC[C@]4(C)c5ccc(C(C)C)cc5CC[C@@H]34)CCC[C@]21C
99

Which Activity is reported for this compound? CC(C)c1ccc2c(c1)CC[C@H]1[C@](C)(CNC(=O)NC34CC5CC(CC(C5)C3)C4)CCC[C@]21C
79

Which Activity is reported for this compound? CC(C)c1ccc2c(c1)CC[C@H]1[C@](C)(CNC(=O)NC3CCCCC3)CCC[C@]21C
96

Which Activity is reported for this compound? CC(C)c1ccc2c(c1)CC[C@H]1[C@](C)(CNC(=O)Nc3ccccc3)CCC[C@]21C
106

Which Activity is reported for this compound? CCNC(=S)NC[C@]1(C)CCC[C@]2(C)c3ccc(C(C)C)cc3CC[C@@H]12
100

Which Activity is reported for this compound? CCNC(=O)NC[C@]1(C)CCC[C@]2(C)c3ccc(C(C)C)cc3CC[C@@H]12
100

Which Activity is reported for this compound? CC(C)c1ccc2c(c1)CC[C@H]1[C@](C)(CNC(=S)Nc3ccccc3)CCC[C@]21C
98

Which Activity is reported for this compound? Cc1ccc(NC(=O)NC[C@]2(C)CCC[C@]3(C)c4ccc(C(C)C)cc4CC[C@@H]23)cc1NC(=O)NC[C@]1(C)CCC[C@]2(C)c3ccc(C(C)C)cc3CC[C@@H]12
83

Which Activity is reported for this compound? C=CCNC(=S)NC[C@]1(C)CCC[C@]2(C)c3ccc(C(C)C)cc3CC[C@@H]12
104

Which Activity is reported for this compound? CC(C)c1ccc2c(c1)CC[C@H]1[C@](C)(CNC(=O)NCC3(C)CC(NC(=O)NC[C@]4(C)CCC[C@]5(C)c6ccc(C(C)C)cc6CC[C@@H]45)CC(C)(C)C3)CCC[C@]21C (some centres not stated)
92

====

Provide the reported pIC50 of each item.
# STUDY_TARGET: Tyrosyl-DNA phosphodiesterase 1 (Homo sapiens, UniProt Q9NUW8, H493R)
# Sequence (Q9NUW8 whole entry H493R): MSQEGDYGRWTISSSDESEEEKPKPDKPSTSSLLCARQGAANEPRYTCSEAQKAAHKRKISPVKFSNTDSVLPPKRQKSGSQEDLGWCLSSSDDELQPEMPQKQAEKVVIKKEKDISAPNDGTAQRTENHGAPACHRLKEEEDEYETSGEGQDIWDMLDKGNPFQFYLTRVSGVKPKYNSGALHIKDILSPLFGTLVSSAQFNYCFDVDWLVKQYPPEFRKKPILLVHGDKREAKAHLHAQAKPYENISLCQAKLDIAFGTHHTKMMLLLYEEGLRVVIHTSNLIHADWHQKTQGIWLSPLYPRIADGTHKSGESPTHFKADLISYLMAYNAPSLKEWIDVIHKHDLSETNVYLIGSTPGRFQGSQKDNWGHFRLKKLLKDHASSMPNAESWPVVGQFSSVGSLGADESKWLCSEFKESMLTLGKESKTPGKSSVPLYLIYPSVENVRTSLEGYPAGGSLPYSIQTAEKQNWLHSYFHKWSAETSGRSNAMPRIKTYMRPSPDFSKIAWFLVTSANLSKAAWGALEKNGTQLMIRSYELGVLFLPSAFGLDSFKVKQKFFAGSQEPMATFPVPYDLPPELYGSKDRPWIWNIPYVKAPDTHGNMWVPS
# ASSAY_NOTES: Inhibition of recombinant TDP1 H493R mutant (unknown origin) using 5'-(5,6 FAM-aac gtc agg gtc ttc c-BHQ1)-3' as substrate measured every 55 secs for 8 mins by fluorescence based assay
pIC50: −log10 of the molar value.

GET /values?readout=pIC50&system=Tyrosyl-DNA phosphodiesterase 1 (Homo sapiens, UniProt Q9NUW8, H493R)&item= C=CCNC(=S)NC[C@]1(C)CCC[C@]2(C)c3ccc(C(C)C)cc3CC[C@@H]12
< 4.30

GET /values?readout=pIC50&system=Tyrosyl-DNA phosphodiesterase 1 (Homo sapiens, UniProt Q9NUW8, H493R)&item= CCNC(=O)NC[C@]1(C)CCC[C@]2(C)c3ccc(C(C)C)cc3CC[C@@H]12
< 4.30

GET /values?readout=pIC50&system=Tyrosyl-DNA phosphodiesterase 1 (Homo sapiens, UniProt Q9NUW8, H493R)&item= CC(C)c1ccc2c(c1)CC[C@H]1[C@](C)(CNC(=O)NCCCCCCNC(=O)NC[C@]3(C)CCC[C@]4(C)c5ccc(C(C)C)cc5CC[C@@H]34)CCC[C@]21C
5.03

GET /values?readout=pIC50&system=Tyrosyl-DNA phosphodiesterase 1 (Homo sapiens, UniProt Q9NUW8, H493R)&item= CNC(=S)NC[C@]1(C)CCC[C@]2(C)c3ccc(C(C)C)cc3CC[C@@H]12
< 4.30
